Tested on: A549
test.description: Cytotoxicity against human A549 cells after 48 hrs by MTT assay
Format: functional, cell-based
details: A549, 48 h
quantity: IC50 (µM)
The figure you give is taken to be in µM; do not add the unit.

Here are 3 compounds together with their reported answers.
{"smiles.structure": "COc1ccc(-c2cc(C(=O)Nc3nc4ccc(Cl)cc4s3)nc3cc(-c4ccccc4)nn23)cc1OC", "IC50 / µM": 6.16}
{"smiles.structure": "COc1ccc(-c2cc(C(=O)Nc3nc4ccc(F)cc4s3)nc3cc(-c4ccccc4)nn23)cc1", "IC50 / µM": 11.7}
{"smiles.structure": "O=C(Nc1nc2ccc(F)cc2s1)c1cc(-c2ccc(F)cc2)n2nc(-c3ccccc3)cc2n1", "IC50 / µM": 14.8}

Q: // lookup IC50 | system=A549 | key= COc1cc(-c2cc(C(=O)Nc3nc4ccc(F)cc4s3)nc3cc(-c4ccccc4)nn23)cc(OC)c1OC
Result: 22.4

Q: Give the reported IC50 for COc1ccc2nc(NC(=O)c3cc(-c4cc(OC)c(OC)c(OC)c4)n4nc(-c5ccccc5)cc4n3)sc2c1 (system: A549).
Result: 2.81

Q: Param readout= IC50; system= A549; entry= COc1ccc(-c2cc(C(=O)Nc3nc4ccccc4s3)nc3cc(-c4ccccc4)nn23)cc1 ; returns value.
Result: 1.54

Q: Provide value of IC50 for this record tested with A549: COc1ccc(-c2cc(C(=O)Nc3nc4cc(C)c(C)cc4s3)nc3cc(-c4ccccc4)nn23)cc1
Result: 13.2

Q: Could you share what IC50 was measured for COc1ccc(-c2cc(C(=O)Nc3nc4ccc(Cl)cc4s3)nc3cc(-c4ccccc4)nn23)cc1 , tested on A549?
Result: 3.09

Q: Item COc1cc(-c2cc(C(=O)Nc3nc4ccc(Cl)cc4s3)nc3cc(-c4ccccc4)nn23)cc(OC)c1OC with A549 - IC50?
Result: 18.2

Q: Under A549: IC50 value of COc1ccc2nc(NC(=O)c3cc(-c4ccc(OC)c(OC)c4)n4nc(-c5ccccc5)cc4n3)sc2c1 ?
Result: 15.8

Q: Give IC50 (A549) of the following compound: Cc1cc2nc(NC(=O)c3cc(-c4ccc(F)cc4)n4nc(-c5ccccc5)cc4n3)sc2cc1C
Result: 12.6

Q: Provide value of IC50 for this record tested with A549: COc1ccc(-c2cc(C(=O)Nc3nc4ccc(F)cc4s3)nc3cc(-c4ccccc4)nn23)cc1OC
Result: 6.91

Q: Could you share what IC50 was measured for COc1ccc(-c2cc(C(=O)Nc3nc4ccc(OC)cc4s3)nc3cc(-c4ccccc4)nn23)cc1 , tested on A549?
Result: 17.4

Q: Give IC50 (A549) of the following compound: COc1ccc2nc(NC(=O)c3cc(-c4ccc(F)cc4)n4nc(-c5ccccc5)cc4n3)sc2c1
Result: 24

Q: // fetch A549 IC50 for COc1ccc(-c2cc(C(=O)Nc3nc4ccccc4s3)nc3cc(-c4ccccc4)nn23)cc1OC
Result: 5.49

Q: Checklist item: IC50 tested on A549, entry COc1cc(-c2cc(C(=O)Nc3nc4ccccc4s3)nc3cc(-c4ccccc4)nn23)cc(OC)c1OC , value?
Result: 2.01

Q: Value wanted: IC50 (A549) of entry COc1ccc(-c2cc(C(=O)Nc3nc4cc(C)c(C)cc4s3)nc3cc(-c4ccccc4)nn23)cc1OC
Result: 2.95

###

Tested on: A549
test.description: Cytotoxicity against human A549 cells after 48 hrs by MTT assay
Type: functional, cell-based
details: A549, 48 h
quantity: pIC50
Just so you know, pIC50 here is -log10 of the concentration in molar units; reply with that number alone.

{"smiles.structure": "CC[C@H](CO)Nc1nc(NCc2ccccc2)c2ncn(C(C)C)c2n1", "pIC50": 5.66}
{"smiles.structure": "O=C(Nc1nc2ccc(Cl)cc2s1)c1cc(-c2ccc(F)cc2)n2nc(-c3ccccc3)cc2n1", "pIC50": 5.18}
{"smiles.structure": "COc1cc(-c2cc(C(=O)Nc3nc4cc(C)c(C)cc4s3)nc3cc(-c4ccccc4)nn23)cc(OC)c1OC", "pIC50": 5.63}

Moving on to another compound below.
Q: Param item = O=C(Nc1nc2ccccc2s1)c1cc(-c2ccc(F)cc2)n2nc(-c3ccccc3)cc2n1 ; retrieve measured pIC50.
Result: 5.71
